Give measured self-cleavage for each item. Keep answers brief.
B1: Twister Ribozyme (parent)
chain: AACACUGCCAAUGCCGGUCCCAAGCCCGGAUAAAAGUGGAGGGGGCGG

- Variants of: B1
- ASSAY TEXT: self-cleavage, relative activity (ratio to wild type); higher = more cleavage; co-transcriptional
One number for each entry.

A selection of reference data follows.
> print(dat)
   variant.code  measured.quantity  value
1     A11U U12C      self-cleavage  0.849
2     A22U A33G      self-cleavage  0.888
3     G47C G48U      self-cleavage    0.4

Respectfully, I request self-cleavage for each entry included below.
1. C9U A11U
2. C26A A40G
3. U18A U31G
4. G24A G29A
5. G41A G48A

Result:
1: 0.84; 2: 0.182; 3: 0.644; 4: 0.155; 5: 0.332
